Target: Tryptase (Homo sapiens, UniProt Q15661)
Sequence (Q15661 31-275): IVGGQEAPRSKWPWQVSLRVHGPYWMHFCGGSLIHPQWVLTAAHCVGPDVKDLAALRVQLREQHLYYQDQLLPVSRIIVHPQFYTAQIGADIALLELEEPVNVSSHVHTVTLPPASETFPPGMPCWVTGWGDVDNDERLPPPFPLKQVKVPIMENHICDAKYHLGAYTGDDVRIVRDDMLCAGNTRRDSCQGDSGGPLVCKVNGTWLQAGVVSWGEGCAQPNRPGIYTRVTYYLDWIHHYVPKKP
Assay: In Vitro Tryptase Inhibition Assay (hydrolysis of tosyl-GlyProLys-p-nitroanilide, Tris-HCl pH 8.2)
Assay type: biochemical
Settings: Table II, parentheses: "dark" conditions (aluminum foil)
Kindly state pKi for each of the entries shown.
pKi here: minus log base 10 of the concentration, concentration in moles per litre.

Item "N=C(N)NCCC[C@H](NC(=O)c1ccc2ccccc2c1O)C(=O)N1CCC[C@H]1C(N)=O" has what recorded pKi?
4.09

Item "N=C(N)NCCC[C@H](NC(=O)c1ccc2ccccc2c1O)C(=O)N1CCC[C@H]1C(=O)N[C@@H](Cc1ccccc1)C(N)=O" has what recorded pKi?
3.96

Item "N=C(N)NCCC[C@H](NC(=O)c1ncccc1O)C(=O)N1CCC[C@H]1C(N)=O" has what recorded pKi?
4.20

Item "N=C(N)NCCC[C@H](NC(=O)c1ccccc1O)C(=O)N1CCC[C@H]1C(N)=O" has what recorded pKi?
2.61

Item "N=C(N)NCCC[C@H](NC(=O)c1cc2ccccc2cc1O)C(=O)N1CCC[C@H]1C(N)=O" has what recorded pKi?
3.15

Item "N=C(N)NCCC[C@H](NC(=O)c1cc(-c2ccccc2)ccc1O)C(=O)N1CCC[C@H]1C(N)=O" has what recorded pKi?
3.83

Item "N=C(N)NCCC[C@H](NC(=O)c1nc2ccccc2nc1O)C(=O)N1CCC[C@H]1C(N)=O" has what recorded pKi?
4.25

* * *

Target: Tryptase (Homo sapiens)
Assay: In Vitro Tryptase Inhibition Assay (hydrolysis of tosyl-GlyProLys-p-nitroanilide, Tris-HCl pH 8.2)
Assay type: biochemical
Details: Table II, asterisk: "light" conditions, 400-450 footcandles
Quick rule for you: Ki under 8 µM gets yes, anything else gets no.

For N=C(N)NCCC[C@H](NC(=O)c1nc2ccccc2nc1O)C(=O)N1CCC[C@H]1C(N)=O [Compound 9] , is the recorded Ki below the cut-off of 8 µM?
no

For N=C(N)NCCC[C@H](NC(=O)c1ccc2ccccc2c1O)C(=O)N1CCC[C@H]1C(=O)N[C@@H](Cc1ccccc1)C(N)=O [Compound 13] , is the recorded Ki below the cut-off of 8 µM?
yes

For N=C(N)NCCC[C@H](NC(=O)c1cc(-c2ccccc2)ccc1O)C(=O)N1CCC[C@H]1C(N)=O [Compound 21] , is the recorded Ki below the cut-off of 8 µM?
no

For N=C(N)NCCC[C@H](NC(=O)c1ccc2ccccc2c1O)C(=O)N1CCC[C@H]1C(N)=O [Compound 3] , is the recorded Ki below the cut-off of 8 µM?
yes

For N=C(N)NCCC[C@H](NC(=O)c1cc2ccccc2cc1O)C(=O)N1CCC[C@H]1C(N)=O [Compound 14] , is the recorded Ki below the cut-off of 8 µM?
no

* * *

Target: UniProt:Q15661
Assay: In Vitro Tryptase Inhibition Assay (hydrolysis of tosyl-GlyProLys-p-nitroanilide, Tris-HCl pH 8.2)
Type: biochemical
Details: Table III, asterisk: "light" conditions, 400-450 footcandles
property_label: Ki

Item N=C(N)Nc1ccc(C[C@H](NC(=O)c2ccc3ccccc3c2O)C(=O)N2CCC[C@H]2C(N)=O)cc1 [Compound 10] has what recorded Ki?
2500 nM

Item N=C(N)NCCC[C@H](NC(=O)c1ccc2ccccc2c1O)C(=O)N1C[C@H](O)C[C@H]1C(N)=O [Compound 11] has what recorded Ki?
300 nM

Item N=C(N)NCCC[C@H](NC(=O)c1ccc2ccccc2c1O)C(=O)N1CCC[C@@H]1C(N)=O [Compound 12] has what recorded Ki?
2500 nM

Item CN(CC(N)=O)C(=O)[C@H](CCCNC(=N)N)NC(=O)c1c(O)ccc2ccccc12 [Compound 1] has what recorded Ki?
3000 nM
